target: HIV-1 Protease (Human immunodeficiency virus type 1 group M subtype B, UniProt P04585); construct: purchased Bachem Bioscience Inc; experiment: HIV Protease Inhibition (hydrolysis of undecapeptide Substrate III, HPLC); type: biochemical
endpoint: pIC50
Lab note: report pIC50 as minus log10 of the concentration in molar units, number only.

Field: example entries. Status: answers known.
| compound | measured |
| --- | --- |
| N#Cc1cccc(OCCCc2c(O)c3ccccc3oc2=O)c1 | 6.22 |
| O=c1oc2ccccc2c(O)c1CCCOc1cccc(Cl)c1 | 5.89 |
| COc1ccc2c(O)c(CCCCc3ccccc3OC)c(=O)oc2c1 | 5.85 |

Switching to the query record.
The value of pIC50 measured for the compound O=c1oc2ccccc2c(O)c1C(SC1CCCCC1)c1ccccc1 (stereo not shown) turned out to be 6.40
